Tested on: 782815-120-R-J1-PDC complex spheroid viability
Assay: Anticancer human tumor 782815-120-R-J1-PDC patient-derived colon adenocarcinoma cell line growth inhibition [RAS]
Details: second compound 0.1 µM; first compound 0.1 µM; active compounds read low
attributeMeasured: viability, T/C (%)
Write the value in % as a bare number.

*Q* Quick check: viability, T/C of CC(C)NCC(C(=O)N1CCN(c2ncnc3c2C(C)CC3O)CC1)c1ccc(Cl)cc1 (configuration not stated) + C=CC(=O)N1CCN(c2nc(OCC3CCCN3C)nc3c(F)c(-c4nc(N)cc(C)c4C(F)(F)F)c(Cl)cc23)C(C)C1 ?
*A* 95.2

*Q* Quick check: viability, T/C of CC(Nc1ccc2c(c1)OCCn1cc(N3C(=O)OCC3C(F)F)nc1-2)C(N)=O (configuration not stated) + C=CC(=O)N1CCN(c2nc(OCC3CCCN3C)nc3c(F)c(-c4nc(N)cc(C)c4C(F)(F)F)c(Cl)cc23)C(C)C1 ?
*A* 91.1

*Q* Quick check: viability, T/C of CC(=O)OC12COC1CC(O)C1(C)C(=O)C(O)C3=C(C)C(OC(=O)C(O)C(NC(=O)OC(C)(C)C)c4ccccc4)CC(O)(C(OC(=O)c4ccccc4)C21)C3(C)C (configuration not stated) + C=CC(=O)N1CCN(c2nc(OCC3CCCN3C)nc3c(F)c(-c4nc(N)cc(C)c4C(F)(F)F)c(Cl)cc23)C(C)C1 ?
*A* 30.4

*Q* Quick check: viability, T/C of CCC(CC)c1cc(NC2CCC(N)C2)n2nccc2n1 (configuration not stated) + C=CC(=O)N1CCN(c2nc(OCC3CCCN3C)nc3c(F)c(-c4nc(N)cc(C)c4C(F)(F)F)c(Cl)cc23)C(C)C1 ?
*A* 98.2

*Q* Quick check: viability, T/C of C=CC(=O)N1CCN(c2nc(OCC3CCCN3C)nc3c(F)c(-c4nc(N)cc(C)c4C(F)(F)F)c(Cl)cc23)C(C)C1 (configuration not stated) + C#Cc1c(F)ccc2cc(O)cc(-c3ncc4c(N5CC6CCC(C5)N6)nc(OCC56CCCN5CC(F)C6)nc4c3F)c12 ?
*A* 94

*Q* Quick check: viability, T/C of CC(Nc1ccc2c(c1)OCCn1cc(N3C(=O)OCC3C(F)F)nc1-2)C(N)=O (configuration not stated) + C#Cc1c(F)ccc2cc(O)cc(-c3ncc4c(N5CC6CCC(C5)N6)nc(OCC56CCCN5CC(F)C6)nc4c3F)c12 ?
*A* 102

*Q* Quick check: viability, T/C of C[C@@H](NC(=O)c1ncnc(N)c1Cl)c1ncc(C(=O)Nc2cc(C(F)(F)F)c(Cl)cn2)s1 + C#Cc1c(F)ccc2cc(O)cc(-c3ncc4c(N5CC6CCC(C5)N6)nc(OCC56CCCN5CC(F)C6)nc4c3F)c12 ?
*A* 111

*Q* Quick check: viability, T/C of NC1c2ccccc2OC12CCN(c1cnc3c(N4CCCc5ncccc54)n[nH]c3n1)CC2 (configuration not stated) + C=CC(=O)N1CCN(c2nc(OCC3CCCN3C)nc3c(F)c(-c4nc(N)cc(C)c4C(F)(F)F)c(Cl)cc23)C(C)C1 ?
*A* 105

*Q* Quick check: viability, T/C of CCN1CCN(Cc2ccc(Nc3ncc(F)c(-c4cc(F)c5nc(C)n(C(C)C)c5c4)n3)nc2)CC1 + C#Cc1c(F)ccc2cc(O)cc(-c3ncc4c(N5CC6CCC(C5)N6)nc(OCC56CCCN5CC(F)C6)nc4c3F)c12 ?
*A* 104

*Q* Quick check: viability, T/C of C=CC(=O)Nc1cc(Nc2nccc(-c3cn(C)c4ccccc34)n2)c(OC)cc1N(C)CCN(C)C + C=CC(=O)N1CCN(c2nc(OCC3CCCN3C)nc3c(F)c(-c4nc(N)cc(C)c4C(F)(F)F)c(Cl)cc23)C(C)C1 ?
*A* 92.9

*Q* Quick check: viability, T/C of O=C(c1ccc(F)c(F)c1Nc1ccc(I)cc1F)N1CC(O)([C@@H]2CCCCN2)C1 + C=CC(=O)N1CCN(c2nc(OCC3CCCN3C)nc3c(F)c(-c4nc(N)cc(C)c4C(F)(F)F)c(Cl)cc23)C(C)C1 ?
*A* 52.4

*Q* Quick check: viability, T/C of C[C@@H](NC(=O)c1ncnc(N)c1Cl)c1ncc(C(=O)Nc2cc(C(F)(F)F)c(Cl)cn2)s1 + C=CC(=O)N1CCN(c2nc(OCC3CCCN3C)nc3c(F)c(-c4nc(N)cc(C)c4C(F)(F)F)c(Cl)cc23)C(C)C1 ?
*A* 101

###

System: 782815-120-R-J1-PDC complex spheroid viability
Test: Anticancer human tumor 782815-120-R-J1-PDC cell line growth inhibition [RAS];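 note: spheroids exposed to compounds for 7 days before reading; 100% = DMSO vehicle control viability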
Details: second compound 0.316 µM; first compound 0.03 µM; active compounds read low
Text: RAS pathway inhibitors in Combinations in Complex Spheroids A high-throughput screen of multi-cell type tumor spheroids was designed to identify active combinations of RAS pathway inhibitors and targeted small molecules. Complex spheroids include a stromal component modeled by human endothelial cells (HUVEC) and fibroblasts modeled by human mesenchymal stem cells (MSCs). […] Compounds. […] If the clinical Cmax for an agent had not been determined, the highest concentration tested was 10 microM. […]
attributeMeasured: viability, T/C (%)
Write the value in % as a bare number.

*Q* Quick check: viability, T/C of CC1(C)CCC(Nc2ncc(C(F)(F)F)c(-c3c[nH]c4c(P(C)(C)=O)c(C#N)ccc34)n2)CN1 (centres undefined) + C=CC(=O)N1CCN(c2nc(OCC3CCCN3C)nc3c(F)c(-c4nc(N)cc(C)c4C(F)(F)F)c(Cl)cc23)C(C)C1 ?
*A* 67.2

*Q* Quick check: viability, T/C of CCc1c2c(nc3ccc(O)cc13)-c1cc3c(c(=O)n1C2)COC(=O)[C@]3(O)CC + C#Cc1c(F)ccc2cc(O)cc(-c3ncc4c(N5CC6CCC(C5)N6)nc(OCC56CCCN5CC(F)C6)nc4c3F)c12 ?
*A* 10.5

*Q* Quick check: viability, T/C of CC1(C)CCC(Nc2ncc(C(F)(F)F)c(-c3c[nH]c4c(P(C)(C)=O)c(C#N)ccc34)n2)CN1 (centres undefined) + C#Cc1c(F)ccc2cc(O)cc(-c3ncc4c(N5CC6CCC(C5)N6)nc(OCC56CCCN5CC(F)C6)nc4c3F)c12 ?
*A* 64.8

*Q* Quick check: viability, T/C of CCc1c2c(nc3ccc(O)cc13)-c1cc3c(c(=O)n1C2)COC(=O)[C@]3(O)CC + C=CC(=O)N1CCN(c2nc(OCC3CCCN3C)nc3c(F)c(-c4nc(N)cc(C)c4C(F)(F)F)c(Cl)cc23)C(C)C1 ?
*A* 9.08

###

Test system: 782815-120-R-J1-PDC complex spheroid viability
Experiment: Anticancer human tumor 782815-120-R-J1-PDC cell line growth inhibition [RAS];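 note: spheroids exposed to compounds for 7 days before reading; 100% = DMSO vehicle control viability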
Details: second compound 3.16 µM; first compound 3.16 µM; active compounds read low
attributeMeasured: viability, T/C

*Q* For 782815-120-R-J1-PDC complex spheroid viability, provide viability, T/C of CCC(CC)c1cc(NC2CCC(N)C2)n2nccc2n1 (stereo not drawn) + C#Cc1c(F)ccc2cc(O)cc(-c3ncc4c(N5CC6CCC(C5)N6)nc(OCC56CCCN5CC(F)C6)nc4c3F)c12 please.
*A* 39.3%

*Q* For 782815-120-R-J1-PDC complex spheroid viability, provide viability, T/C of CC1(O)CCCC1n1c(=O)c(C(F)F)cc2cnc(NC3CCN(S(C)(=O)=O)CC3)nc21 (stereo not drawn) + C#Cc1c(F)ccc2cc(O)cc(-c3ncc4c(N5CC6CCC(C5)N6)nc(OCC56CCCN5CC(F)C6)nc4c3F)c12 please.
*A* 79.1%

*Q* For 782815-120-R-J1-PDC complex spheroid viability, provide viability, T/C of Cc1nc(N2CCC3(CC2)COC(C)C3N)c(CO)nc1Sc1ccnc(N)c1Cl (stereo not drawn) + C#Cc1c(F)ccc2cc(O)cc(-c3ncc4c(N5CC6CCC(C5)N6)nc(OCC56CCCN5CC(F)C6)nc4c3F)c12 please.
*A* 97%

*Q* For 782815-120-R-J1-PDC complex spheroid viability, provide viability, T/C of NC1c2ccccc2OC12CCN(c1cnc3c(N4CCCc5ncccc54)n[nH]c3n1)CC2 (stereo not drawn) + C#Cc1c(F)ccc2cc(O)cc(-c3ncc4c(N5CC6CCC(C5)N6)nc(OCC56CCCN5CC(F)C6)nc4c3F)c12 please.
*A* 99%

*Q* For 782815-120-R-J1-PDC complex spheroid viability, provide viability, T/C of CC(Nc1ccc2c(c1)OCCn1cc(N3C(=O)OCC3C(F)F)nc1-2)C(N)=O (stereo not drawn) + C#Cc1c(F)ccc2cc(O)cc(-c3ncc4c(N5CC6CCC(C5)N6)nc(OCC56CCCN5CC(F)C6)nc4c3F)c12 please.
*A* 97.5%

*Q* For 782815-120-R-J1-PDC complex spheroid viability, provide viability, T/C of CC(=O)OC12COC1CC(O)C1(C)C(=O)C(O)C3=C(C)C(OC(=O)C(O)C(NC(=O)OC(C)(C)C)c4ccccc4)CC(O)(C(OC(=O)c4ccccc4)C21)C3(C)C (stereo not drawn) + C#Cc1c(F)ccc2cc(O)cc(-c3ncc4c(N5CC6CCC(C5)N6)nc(OCC56CCCN5CC(F)C6)nc4c3F)c12 please.
*A* 28.3%

*Q* For 782815-120-R-J1-PDC complex spheroid viability, provide viability, T/C of CC(C)NCC(C(=O)N1CCN(c2ncnc3c2C(C)CC3O)CC1)c1ccc(Cl)cc1 (stereo not drawn) + C#Cc1c(F)ccc2cc(O)cc(-c3ncc4c(N5CC6CCC(C5)N6)nc(OCC56CCCN5CC(F)C6)nc4c3F)c12 please.
*A* 98.3%

*Q* For 782815-120-R-J1-PDC complex spheroid viability, provide viability, T/C of C[C@@H](NC(=O)c1ncnc(N)c1Cl)c1ncc(C(=O)Nc2cc(C(F)(F)F)c(Cl)cn2)s1 + C#Cc1c(F)ccc2cc(O)cc(-c3ncc4c(N5CC6CCC(C5)N6)nc(OCC56CCCN5CC(F)C6)nc4c3F)c12 please.
*A* 76.4%
